Target: Class 1 histone deacetylase (Homo sapiens, UniProt Q13547+O15379+Q92769+Q9BY41)
Assay: Inhibition of HDAC class 1 in human HT-29 cells using Boc-Lys-Ac as substrate incubated for 3 hrs by microplate reader assay
Assay type: cell-based
Would you kindly list IC50 for each of these molecules?

Item: CN(Cc1ccccc1)C(=O)CCNC(=O)c1cccc(-c2noc(C(F)(F)F)n2)c1 | IC50: > 50 µM

Item: COC[C@@H](NC(=O)c1ccc(-c2noc(C(F)(F)F)n2)nc1)C(=O)NCc1ccccc1 | IC50: > 15 µM

Item: C[C@H](CN(C)Cc1ccccc1)NC(=O)c1cccc(-c2noc(C(F)(F)F)n2)c1 | IC50: > 50 µM

Item: C[C@H](CN(C)Cc1ccc(F)cc1)NC(=O)c1ccc(-c2noc(C(F)(F)F)n2)cc1 | IC50: > 15 µM

Item: CN(Cc1ccccc1)C(=O)CCNC(=O)c1ccc(-c2noc(C(F)(F)F)n2)cc1 | IC50: > 15 µM

Item: CC(C)(CNC(=O)c1ccc(-c2noc(C(F)(F)F)n2)cc1)c1coc(-c2ccccc2)n1 | IC50: > 15 µM

Item: C[C@@H](NC(=O)c1ccc(-c2noc(C(F)(F)F)n2)cc1)C(=O)NCc1ccccc1 | IC50: > 15 µM

Item: CC(C)(CNC(=O)c1cccc(-c2noc(C(F)(F)F)n2)c1)c1coc(-c2ccccc2)n1 | IC50: > 50 µM

Item: CN(Cc1ccccc1)C(=O)C(C)(C)CNC(=O)c1ccc(-c2noc(C(F)(F)F)n2)cc1 | IC50: > 15 µM

Item: CN(Cc1ccccc1)C(=O)C(C)(C)CNC(=O)c1cccc(-c2noc(C(F)(F)F)n2)c1 | IC50: > 50 µM

Item: C[C@H](CN(C)Cc1ccccc1)NC(=O)c1ccc(-c2noc(C(F)(F)Cl)n2)cc1 | IC50: > 2 µM

Item: C[C@H](CN(C)Cc1ccccc1)NC(=O)c1ccc(-c2noc(C(F)(F)F)n2)nc1 | IC50: > 50 µM

Item: COC[C@@H](NC(=O)c1ccc(-c2noc(C(F)(F)F)n2)cc1)C(=O)NCc1ccccc1 | IC50: > 15 µM

Item: COC[C@@H](NC(=O)c1ccc(-c2noc(C(F)(F)F)n2)cc1)C(=O)NCc1ccc(F)cc1 | IC50: > 15 µM

Item: CC(CN(C)Cc1ccccc1)NC(=O)c1ccc(-c2noc(C(F)(F)F)n2)cc1 (stereo not drawn) | IC50: > 50 µM

Item: C[C@H](CN(C)Cc1ccccc1)NC(=O)c1ccc(-c2noc(C(F)(F)F)n2)cc1 | IC50: > 15 µM

Item: C[C@H](CN(C)Cc1ccccc1)NC(=O)c1ccc(-c2noc(C(F)(F)Br)n2)cc1 | IC50: > 5 µM

Item: CC(C)(CNC(=O)c1ccc(-c2noc(C(F)(F)F)n2)cc1)C(=O)NCc1ccccc1 | IC50: > 15 µM

====

Would you kindly list IC50 for each of these compounds?
Target: Histone deacetylase 2 (Homo sapiens)
Sequence (Q92769 whole entry): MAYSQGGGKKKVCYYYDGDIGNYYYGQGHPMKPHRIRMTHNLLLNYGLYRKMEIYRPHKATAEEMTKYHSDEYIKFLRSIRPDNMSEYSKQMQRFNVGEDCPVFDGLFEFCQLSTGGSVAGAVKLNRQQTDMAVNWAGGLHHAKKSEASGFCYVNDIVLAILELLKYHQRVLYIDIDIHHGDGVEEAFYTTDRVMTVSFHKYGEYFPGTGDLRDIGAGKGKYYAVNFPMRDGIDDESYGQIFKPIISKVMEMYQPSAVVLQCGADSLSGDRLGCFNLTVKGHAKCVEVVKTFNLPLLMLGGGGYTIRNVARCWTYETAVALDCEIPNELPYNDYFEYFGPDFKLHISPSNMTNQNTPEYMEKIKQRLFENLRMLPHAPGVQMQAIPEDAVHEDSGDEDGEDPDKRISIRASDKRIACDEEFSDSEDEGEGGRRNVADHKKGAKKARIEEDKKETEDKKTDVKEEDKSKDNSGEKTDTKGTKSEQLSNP
Assay: Inhibition of recombinant human HDAC2 using fluorogenic substrate by fluorescence microplate reader assay

Item: CC(C)(CNC(=O)c1cccc(-c2noc(C(F)(F)F)n2)c1)c1coc(-c2ccccc2)n1 | IC50: > 5000 nM

Item: C[C@H](CN(C)Cc1ccccc1)NC(=O)c1ccc(-c2noc(C(F)(F)F)n2)cc1 | IC50: > 600 nM
